target: SIRP-α human v1 (human) (UniProt P78324); assay: SPR, antibody on GLC chip, SIRP as analyte
Sequence (P78324 31-149): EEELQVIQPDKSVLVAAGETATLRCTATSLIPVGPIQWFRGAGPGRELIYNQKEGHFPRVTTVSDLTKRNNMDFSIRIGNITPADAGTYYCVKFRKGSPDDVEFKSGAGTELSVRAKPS
Below, each of the binders is paired with its reported pKd value.
Conceptually, pKd converts a concentration in mol/L into minus its log10.

Reference set, count: 4
{"columns": ["Binder", "Measured Quantity", "Reported"],
 "data": [
  ["Anti-SIRP-α antibody 119, light chain Mut, heavy chain wt (antibody, V domains shown) VH: EVQLLESGGGVVQPGGSLRLSCAASGFSFSNFAMTWVRQAPGEGLEWVSTIGSGDTYYADSVKGRFTISRDNSKNTLYLQMNSLRAEDTAVYYCAKDSTVSWSGDFFDYWGLGTLVTVSS VL: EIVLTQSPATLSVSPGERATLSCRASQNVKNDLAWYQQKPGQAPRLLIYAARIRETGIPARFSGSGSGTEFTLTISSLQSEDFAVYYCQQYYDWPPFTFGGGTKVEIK", "pKd", 9.68],
  ["Anti-SIRP-α antibody 136, light chain Mut_Q38E, heavy chain Mut (antibody, V domains shown) VH: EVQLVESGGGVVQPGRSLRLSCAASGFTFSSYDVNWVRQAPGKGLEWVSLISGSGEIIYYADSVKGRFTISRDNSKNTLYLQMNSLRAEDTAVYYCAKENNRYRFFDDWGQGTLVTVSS VL: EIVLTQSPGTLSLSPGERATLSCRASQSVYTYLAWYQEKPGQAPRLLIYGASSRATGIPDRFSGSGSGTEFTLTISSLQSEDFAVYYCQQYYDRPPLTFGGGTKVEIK", "pKd", 8.21],
  ["Anti-SIRP-α antibody 136, light chain Mut_I2T, heavy chain Mut_V34M (antibody, V domains shown) VH: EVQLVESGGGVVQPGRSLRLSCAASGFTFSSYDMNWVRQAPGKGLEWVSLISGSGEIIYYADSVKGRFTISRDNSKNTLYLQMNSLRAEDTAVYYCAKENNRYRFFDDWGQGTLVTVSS VL: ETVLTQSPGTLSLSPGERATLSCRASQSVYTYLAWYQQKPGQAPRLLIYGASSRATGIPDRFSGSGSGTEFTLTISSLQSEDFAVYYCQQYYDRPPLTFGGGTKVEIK", "pKd", 9.26],
  ["Anti-SIRP-α antibody 119, light chain Mut, heavy chain Mut (antibody, V domains shown) VH: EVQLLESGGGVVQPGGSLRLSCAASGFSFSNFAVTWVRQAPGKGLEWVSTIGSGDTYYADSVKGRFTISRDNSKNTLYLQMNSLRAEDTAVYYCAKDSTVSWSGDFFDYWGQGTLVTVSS VL: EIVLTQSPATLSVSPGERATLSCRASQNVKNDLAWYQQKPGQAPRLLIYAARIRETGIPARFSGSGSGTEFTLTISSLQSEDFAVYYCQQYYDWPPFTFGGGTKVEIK", "pKd", 9.49]
]}

Next binder, pKd to be filled in.
Sample Hum9/AB21_HC_Mutall (antibody, V domains shown) VH: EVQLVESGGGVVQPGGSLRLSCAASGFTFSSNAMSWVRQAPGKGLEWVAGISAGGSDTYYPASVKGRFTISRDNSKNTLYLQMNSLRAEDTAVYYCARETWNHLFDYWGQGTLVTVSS VL: SYELTQPPSVSVSPGQTARITCSGGAYSSYYYAWYQQKPGQAPVLVIYSDDKRPSGIPERFSGSSSGTTVTLTISGVQAEDEADYYCGGYDQSSYTNPFGGGTKLTVL — what was its pKd?
10.92
